# measurement target: T1, EBOV sGP (EBOV (Ebola Zaire), UniProt P60170 33-324)
# T1 chain: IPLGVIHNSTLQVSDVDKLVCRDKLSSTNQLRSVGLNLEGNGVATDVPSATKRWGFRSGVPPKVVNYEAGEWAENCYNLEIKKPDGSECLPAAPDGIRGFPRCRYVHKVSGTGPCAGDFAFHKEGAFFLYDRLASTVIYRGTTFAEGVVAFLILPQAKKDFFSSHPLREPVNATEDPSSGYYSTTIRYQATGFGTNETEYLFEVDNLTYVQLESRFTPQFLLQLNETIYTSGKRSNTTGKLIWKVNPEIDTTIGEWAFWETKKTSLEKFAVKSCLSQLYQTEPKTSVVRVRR
# assay notes: ELISA

binder	EC50
EBOV87 (antibody, V domains shown) VH: QVQLVQSGAEVKRPGASVKVSCKASGYTFTSYAISWVRQAPGQGLEWMGWISGNNGNTNYAQKLQGRLTMTTDTSTSTAYMELRSLRSDDTAVYYCARDADIVVVVGATGTYYYGMDVWGQGTLVTVSS VL: DIVMTQSPSTLSASVGDRVTITCRASQSISSWLAWYQQKPGKAPKLLIYDASSLESGVPSRFSGSGSGTEFTLTISSLQPDDFATYYCQQYKSSLRTFGQGTQLEIK	0.051 µg/mL
EBOV63 (antibody, V domains shown) VH: EVQLVESGGGLVKPGGSLRLSCAASGFTLNFYNMNWVRQAPGKGLEWVSSISSSSNYIYYADSVKGRFTISRDNARKSLYLQMNSLRAEDTAVYYCARDFVQLLIPQRDEWQGVHDYYGMDVWGQGTLVTVSS VL: EIVLTQSPGTLSLSPGGRATLSCRASQSVSNSYLAWYQQKPGQAPRLLIYGASSRATGIPDRFSGSGSGTDFILTISRLEPEDFAVYYCQHYGSSQLTFGGGTKVEIK	0.038 µg/mL
